- Assay notes: physchem
- Recorded conditions: water

Input smiles	solubility
Br.Cc1ccc(Sc2ccccc2N2CCNCC2)c(C)c1	3800 µg/mL
